tested on: Human immunodeficiency virus 1; experiment: Antiviral activity against HIV1 3B infected in human HOS cells expressing human CXCR4/CCR5/CD4/pHIV-LTR luciferase assessed as inhibition of viral infection to cells; assay type: functional, organism-based; conditions: Human immunodeficiency virus 1, 3B
Measured pIC50 accompanies every entry in the list below.
Reminder that pIC50 means the negative base-10 logarithm of the concentration expressed in mol/L.

Consider the following illustrative entries.
• NCCCCN(Cc1nccc2ccccc12)C1CCCc2cccnc21 (racemic) = 7.96
• NCCCCN(Cc1nc2ccccc2s1)C1CCCc2cccnc21 (racemic) = 6.70
• CN(Cc1ncc2ccccc2c1CNS(C)(=O)=O)[C@H]1CCCc2cccnc21 = 7.39
• NCCCCN(Cc1cc2ccccc2cn1)C1CCCc2cccnc21 (racemic) = 7.92

Consider now this further molecule.
Challenge: Lab note: Human immunodeficiency virus 1 assay, enter pIC50 for CN(Cc1ncc2ccccc2c1CCCNS(C)(=O)=O)[C@H]1CCCc2cccnc21 here
Response given: 7.80
